Values from paper PMC7822874

# Protocol Details: in vitro
# Run Parameters: human, HepG2 cells; n = 1
Overview of reported CC50 at 48 h across a group of compounds:
Experimental Endpoint: CC50 at 48 h (µM)

| Smiles Record | Numeric Result |
| --- | --- |
| O=c1cc(CSc2ccc(Cl)cc2)nc(-c2ccccn2)[nH]1 | 12.2 |
| COc1ccc(CCNc2nc3c(c(=O)n(C)c(=O)n3C)n2Cc2ccc(F)cc2)cc1OC | 13.7 |
| CC(C)c1cc(C(=O)NC2CCN(c3ncccc3C#N)CC2)n(C)n1 | 19.3 |
| O=C(CCCCCCC(=O)Nc1ccccc1)NO | 19.3 |
| CC(C)c1ccc(CC(=O)N2CCCc3ncc(C(=O)Nc4cccnc4)cc32)cc1 | 19.8 |
| COc1cnc(-c2ccccn2)nc1NC(C)C | 15.3 |
| CCCCOCc1cc(CN2CCN(c3cccc(Cl)c3)CC2)c(O)c2ncccc12 | 17.2 |
| COc1cc(SC)ccc1C(=O)Nc1nc2ccccc2[nH]1 | 19.3 |
| Cc1nn2c(c1-c1ccccc1-c1ccccc1)N(CC1CC1)CCC2 | 22.2 |
| O=C(Nc1ccccc1O)c1ccc(NC(=O)C2CC2)cc1 | 10.9 |
| COc1ccc(CN[C@@H]2C=C[C@@H](c3c(C)nn(-c4ccc(OC)cc4)c3C)C2)cc1 | 39.6 |
| CCN(CC)[S+](=O)([O-])c1ccc(NC(=O)CCc2c(C)nc3cc(-c4ccc(Cl)cc4)nn3c2C)cc1 | 27.3 |
| N#Cc1c(Cl)nsc1NC(=O)c1ccccc1 | 13.7 |
| c1ccc(CCNc2ccnc3cc4ccccc4cc23)cc1 | 10.9 |
